Target: T1, T cell IL-4 receptor (IL-4Rα/IL-2Rγ) (human, UniProt P24394 26-825; P31785 23-369)
T1 sequence (looked up) 1: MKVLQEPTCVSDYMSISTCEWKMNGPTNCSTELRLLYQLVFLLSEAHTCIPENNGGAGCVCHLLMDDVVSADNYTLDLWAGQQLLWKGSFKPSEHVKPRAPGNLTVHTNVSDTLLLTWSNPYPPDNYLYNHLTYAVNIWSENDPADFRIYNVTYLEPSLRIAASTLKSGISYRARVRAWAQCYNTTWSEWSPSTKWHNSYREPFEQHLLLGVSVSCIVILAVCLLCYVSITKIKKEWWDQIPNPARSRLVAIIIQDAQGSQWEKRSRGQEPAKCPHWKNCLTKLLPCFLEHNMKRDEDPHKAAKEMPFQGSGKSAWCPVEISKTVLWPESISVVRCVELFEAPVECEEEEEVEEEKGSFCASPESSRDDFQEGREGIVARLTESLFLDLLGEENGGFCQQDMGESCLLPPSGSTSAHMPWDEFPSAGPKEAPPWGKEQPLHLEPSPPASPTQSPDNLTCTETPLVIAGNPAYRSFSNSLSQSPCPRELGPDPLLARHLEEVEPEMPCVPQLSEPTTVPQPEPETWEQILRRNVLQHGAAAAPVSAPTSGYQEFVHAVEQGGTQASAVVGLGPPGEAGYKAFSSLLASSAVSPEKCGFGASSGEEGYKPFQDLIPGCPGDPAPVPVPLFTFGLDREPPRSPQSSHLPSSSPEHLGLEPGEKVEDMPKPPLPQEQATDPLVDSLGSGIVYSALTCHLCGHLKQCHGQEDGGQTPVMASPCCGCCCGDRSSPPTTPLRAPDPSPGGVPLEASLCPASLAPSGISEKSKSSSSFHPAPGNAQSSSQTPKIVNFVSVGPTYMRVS
T1 sequence (looked up) 2: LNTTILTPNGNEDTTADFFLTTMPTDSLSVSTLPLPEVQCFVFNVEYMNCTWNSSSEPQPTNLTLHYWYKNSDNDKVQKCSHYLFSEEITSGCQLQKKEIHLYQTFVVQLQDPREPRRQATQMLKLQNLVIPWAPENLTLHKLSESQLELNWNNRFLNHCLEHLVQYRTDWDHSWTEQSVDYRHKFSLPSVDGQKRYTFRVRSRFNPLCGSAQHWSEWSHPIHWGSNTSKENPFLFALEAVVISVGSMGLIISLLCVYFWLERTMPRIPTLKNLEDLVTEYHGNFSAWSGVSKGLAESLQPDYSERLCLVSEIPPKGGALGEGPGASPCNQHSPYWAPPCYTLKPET
Assay: cell-based or functional assay
METRIC_NAME: 1° T cell proliferation, EC50, pM
Kindly write the number and append the unit.

**Query** Could you tell me which 1° T cell proliferation, EC50, pM is on file for IL-4 mutein Y124T (ligand) HKCDITLQEIIKTLNSLTEQKTLCTELTVTDIFAASKNTTEKETFCRAATVLRQFYSHHEKDTRCLGATAQQFHRHKQLIRFLKRLDRNLWGLAGLNSCPVKEANQSTLENFLERLKTIMREKTSKCSS ?
**Result** 300 pM

**Query** Could you tell me which 1° T cell proliferation, EC50, pM is on file for IL-4 mutein Y124Q (ligand) HKCDITLQEIIKTLNSLTEQKTLCTELTVTDIFAASKNTTEKETFCRAATVLRQFYSHHEKDTRCLGATAQQFHRHKQLIRFLKRLDRNLWGLAGLNSCPVKEANQSTLENFLERLKTIMREKQSKCSS ?
**Result** 250 pM

**Query** Could you tell me which 1° T cell proliferation, EC50, pM is on file for IL-4 mutein R121P (ligand) HKCDITLQEIIKTLNSLTEQKTLCTELTVTDIFAASKNTTEKETFCRAATVLRQFYSHHEKDTRCLGATAQQFHRHKQLIRFLKRLDRNLWGLAGLNSCPVKEANQSTLENFLERLKTIMPEKYSKCSS ?
**Result** 100 pM

**Query** Could you tell me which 1° T cell proliferation, EC50, pM is on file for IL-4 mutein R121T/E122F/Y124Q (ligand) HKCDITLQEIIKTLNSLTEQKTLCTELTVTDIFAASKNTTEKETFCRAATVLRQFYSHHEKDTRCLGATAQQFHRHKQLIRFLKRLDRNLWGLAGLNSCPVKEANQSTLENFLERLKTIMTFKQSKCSS ?
**Result** 15 pM

Measured values drawn from patent US20030004314A1 for this set.
